The measurements presented in this section are drawn from paper PMC2792877.

# target_under_test: pa-FPR (Pseudomonas aeruginosa, UniProt Q9HYK7)
# Sequence (Q9HYK7 whole entry): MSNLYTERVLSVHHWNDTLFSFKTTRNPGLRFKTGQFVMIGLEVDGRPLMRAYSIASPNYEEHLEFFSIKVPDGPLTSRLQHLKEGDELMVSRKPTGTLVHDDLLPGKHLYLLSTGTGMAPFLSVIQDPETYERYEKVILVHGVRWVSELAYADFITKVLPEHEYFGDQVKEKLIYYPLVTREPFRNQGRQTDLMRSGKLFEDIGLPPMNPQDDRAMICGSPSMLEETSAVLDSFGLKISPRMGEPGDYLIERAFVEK
# test_summary: 1H-15N HSQC NMR titration, […] fit
endpoint_name: Kd (µM)

compound	numeric_value
NC(=O)c1ccc[n+]([C@@H]2O[C@H](COP(=O)(O)OP(=O)(O)OC[C@H]3O[C@@H](n4cnc5c(N)ncnc54)[C@H](OP(=O)(O)O)[C@@H]3O)[C@@H](O)[C@H]2O)c1 [NADP^+]	24
